The reported numbers originate from patent US4864023A.

Here's what we have: MIC numbers for Escherichia coli NIHJ JC-2.
endpoint: MIC (µg/mL)

| molecule | endpoint | scaleUnit | experimentalValue |
| --- | --- | --- | --- |
| CN1COc2c(N3CCN(CCO)CC3)c(F)cc3c(=O)c(C(=O)O)cn1c23 | MIC | µg/mL | 0.1 |
| CCNC1CCN(c2c(F)cc3c(=O)c(C(=O)O)cn4c3c2OCN4C)C1 (centres unmarked) | MIC | µg/mL | 0.1 |
| CC1CN(c2c(F)cc3c(=O)c(C(=O)O)cn4c3c2OCN4C)CCN1C (centres unmarked) | MIC | µg/mL | 0.1 |
| CC(=O)CN1CCN(c2c(F)cc3c(=O)c(C(=O)O)cn4c3c2OCN4C)CC1 | MIC | µg/mL | 0.39 |
| COC1CCN(c2c(F)cc3c(=O)c(C(=O)O)cn4c3c2OCN4C)CC1 | MIC | µg/mL | 6.25 |
| CCNCC1CCN(c2c(F)cc3c(=O)c(C(=O)O)cn4c3c2OCN4C)C1 (centres unmarked) | MIC | µg/mL | 0.05 |
| CN1COc2c(N3CCC(CN)C3)c(F)cc3c(=O)c(C(=O)O)cn1c23 (centres unmarked) | MIC | µg/mL | 0.1 |
| CN1COc2c(N3CCN(CC(=O)c4ccccc4)CC3)c(F)cc3c(=O)c(C(=O)O)cn1c23 | MIC | µg/mL | 0.78 |
